Cited source: patent US12501900B2

- Test system: Septoria tritici
- PROCEDURE_SUMMARY: Septoria tritici in vitro cell test
- Type: cell-based
- TEST_CONDITIONS: Zymoseptoria tritici, 168 h; 20 ppm of active ingredient; liquid culture, 7 days incubation; read-out: efficacy (inhibition of fungal growth)
TEST_READOUT: inhibition at 20 ppm

Below: 3 molecules and their reported inhibition at 20 ppm.
>>> result("Cc1ccc(CC2CON=C(c3cc(C)nnc3Oc3cccc(Cl)c3F)N2)c(Cl)c1 (stereo not shown)")
"90 to 100%"
>>> result("Cc1cc(C2=NOCC(c3cn(C)c4ccccc34)N2)c(Oc2cccc(C(F)(F)F)c2)nn1 (racemic)")
"90 to 100%"
>>> result("FC(F)(F)c1cccc(Oc2nnc(Cl)cc2C2=NOC[C@H](Cc3ccccc3)N2)c1 (single isomer, unassigned)")
"80 to 89%"

Could you now look at the following molecule, please?
Can you look up the measured inhibition at 20 ppm of Cc1ccc(CC2CON=C(c3cc(Cl)nnc3Oc3cccc(C(F)(F)F)c3)N2)c(C)c1 (racemic) for me?
90 to 100%

----------
- PROCEDURE_SUMMARY: Measurement of LogP values by HPLC on reversed phase columns (EEC directive 79/831 Annex V.A8), methods [a], [b], [c]
- Assay type: physicochemical
- TEST_CONDITIONS: reversed phase HPLC column; method [a]: LC-UV, acidic range, 0.1% formic acid in water and acetonitrile; Table 5, compounds of formula (2)
TEST_READOUT: chromatographic logP
Respond numerically, and do not add a unit to the figure.

Can you look up the measured chromatographic logP of Cc1ccc(OCC(N)CON2C(=O)c3ccccc3C2=O)c(C)c1 (racemic) [2-12, 2,2,2-trifluoroacetate] for me?
1.7
